# tgt: glutathione-S-transferase (GST) tagged LXRbeta LBD (ligand binding domain) (Homo sapiens, UniProt P55055)
# Construct: purchased Invitrogen pv4658
# Sequence (P55055 222-460 limits assumed): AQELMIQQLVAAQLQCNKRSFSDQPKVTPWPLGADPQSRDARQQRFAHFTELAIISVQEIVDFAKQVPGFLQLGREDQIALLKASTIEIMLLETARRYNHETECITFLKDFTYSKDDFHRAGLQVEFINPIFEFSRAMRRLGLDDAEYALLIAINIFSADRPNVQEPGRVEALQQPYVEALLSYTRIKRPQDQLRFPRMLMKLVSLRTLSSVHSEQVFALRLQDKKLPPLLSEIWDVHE
# protocol.details: LanthaScreen TR-FRET Liver X Receptor Coactivator Assay, LXR beta
# Format: biochemical
# test.context: LXR beta IP, potency (Inflection Point), compound-induced co-activator recruitment, TR-FRET
# note: boundary value 10 nM maps to criterion not met; EC50 below it maps to criterion met

| compound | classification |
| --- | --- |
| CN(C)C(=O)c1ccc(OCCC[C@H]2CC23CCN(C(=O)[C@](O)(c2ccccc2)C(F)(F)F)CC3)nc1Cl (single isomer, unassigned) [Example 15-1] | criterion not met |
| CN(C)C(=O)c1ccc(OCCCCC2(C)CCN(C(=O)C3(c4ccccc4)CCCC3)CC2)cc1Cl [Example 9-1] | criterion not met |
| CN(C)C(=O)c1ccc(OCCCC2CCN(C(=O)c3cc(F)ccc3F)CC2)cc1Cl [Example 3-1] | criterion not met |
| COc1cccc([C@@](O)(C(=O)N2CCC([C@H]3C[C@H]3CCOc3ccc(C(=O)N(C)C)c(Cl)c3)CC2)C(F)(F)F)c1 (single isomer, unassigned) [Example 10-1] | criterion met |
| CNC(=O)c1ccc(OCC[C@@H]2C[C@@H]2C2CCN(C(=O)[C@](O)(c3cccc(OC)c3)C(F)(F)F)CC2)cc1Cl (single isomer, unassigned) [Example 10-5] | criterion met |

Next compound, please.
// query Criterion: EC50 strictly below 10 nM. Is it met by COc1cccc([C@@](O)(C(=O)N2CCC(CCCCOc3ccc(C(=O)N(C)C)c(C#N)n3)CC2)C(F)(F)F)c1 (single isomer, unassigned) [Example 4-2] ?
// result criterion not met

====

The reader will find reported Emax values listed item by item below.
# tgt: glutathione-S-transferase (GST) tagged LXRbeta LBD (ligand binding domain) (Homo sapiens)
# Construct: purchased Invitrogen pv4658
# protocol.details: LanthaScreen TR-FRET Liver X Receptor Coactivator Assay, LXR beta
# Assay type: biochemical
# test.context: read-out: LXR beta actiivty at max dose, efficacy (% Emax) in relation to reference dual agonist T0901317
Response body: numeric value in %, unit text excluded.

// query Return reported Emax; argument: COc1cccc(C(O)(C(=O)N2CCC(CCCCOc3ccc(C(=O)N(C)C)c(OC)c3)CC2)C(F)(F)F)c1 (single isomer, unassigned)
// result 66

// query Return reported Emax; argument: CN(C)C(=O)c1ccc(OCCC[C@H]2CC23CCN(C(=O)[C@@](O)(c2ccccc2)C(F)(F)F)CC3)cc1Cl (single isomer, unassigned)
// result 99

// query Return reported Emax; argument: COc1cccc([C@@](O)(C(=O)N2CCC(C[C@H]3C[C@@H](Oc4ccc(C(=O)N(C)C)c(Cl)c4)C3)CC2)C(F)F)c1 (single isomer, unassigned)
// result 51

====

The reader will find reported EC50 values listed item by item below.
# tgt: glutathione-S-transferase (GST) tagged LXRbeta LBD (ligand binding domain) (Homo sapiens, UniProt P55055)
# Construct: purchased Invitrogen pv4658
# protocol.details: LanthaScreen TR-FRET Liver X Receptor Coactivator Assay, LXR beta
# Assay type: biochemical
# test.context: LXR beta IP, potency (Inflection Point), compound-induced co-activator recruitment, TR-FRET
Response body: numeric value in nM, unit text excluded.

| compound | quantity.unit | EC50 |
| --- | --- | --- |
| CN(C)C(=O)c1ccc(OCC[C@@H]2CC23CCN(C(=O)C(O)(c2cccc4c2OC(F)(F)O4)C(F)(F)F)CC3)cc1Cl (single isomer, unassigned) | nM | 26 |
| CNC(=O)c1ccc(OCCCCC2CCN(C(=O)[C@](O)(c3cccc(OC)c3)C(F)(F)F)CC2)cc1Cl (single isomer, unassigned) | nM | 14 |

Let us move to another entry and its EC50.
// query Return reported EC50; argument: CCc1nc(OCCCCC2CCN(C(=O)C(O)(c3ccccc3)C(F)(F)F)CC2)ccc1C(=O)N(C)C (stereo not drawn)
// result 63

====

# tgt: glutathione-S-transferase (GST) tagged LXRalpha LBD (ligand binding domain) (Homo sapiens)
# Construct: purchased Invitrogen pv4655
# Sequence (Q13133 209-447 limits assumed): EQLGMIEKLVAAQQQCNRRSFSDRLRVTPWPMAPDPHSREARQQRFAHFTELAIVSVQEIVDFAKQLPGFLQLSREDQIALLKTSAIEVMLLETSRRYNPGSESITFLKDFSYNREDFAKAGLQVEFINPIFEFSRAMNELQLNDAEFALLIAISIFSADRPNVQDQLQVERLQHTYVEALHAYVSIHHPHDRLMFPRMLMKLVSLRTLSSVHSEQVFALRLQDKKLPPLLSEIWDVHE
# protocol.details: biochemical
# test.context: read-out: LXR alpha actiivty at max dose, efficacy (% Emax) in relation to reference dual agonist T0901317
Could you label it yes if measured Emax is 3% or higher, and no otherwise?

| molecule | tgt | classification |
| --- | --- | --- |
| CC1(C)CCN(C(=O)c2ccc(OCCCCC3CCN(C(=O)C(O)(c4ccccc4)C(F)(F)F)CC3)cc2Cl)C1 (single isomer, unassigned) [Example 8-5] | glutathione-S-transferase (GST) tagged LXRalpha LBD (ligand binding domain) (Homo sapiens) | no |
| CC(C)N(C)C(=O)c1ccc(OCCCCC2CCN(C(=O)[C@](O)(c3ccccc3)C(F)(F)F)CC2)cc1Cl (single isomer, unassigned) [Example 8-17] | glutathione-S-transferase (GST) tagged LXRalpha LBD (ligand binding domain) (Homo sapiens) | yes |
| COc1cccc([C@@](O)(C(=O)N2CCC3(CC2)C[C@@H]3CCCOc2ccc(C(=O)N(C)C)c(Cl)c2)C(F)(F)F)c1 (single isomer, unassigned) [Example 14-6] | glutathione-S-transferase (GST) tagged LXRalpha LBD (ligand binding domain) (Homo sapiens) | yes |

Next molecule, please.
// query Please indicate if the recorded Emax for CN(C)C(=O)c1ccc(O[C@H]2C[C@@H](CC3CCN(C(=O)[C@](O)(c4cccc(C(F)(F)F)c4)C(F)(F)F)CC3)C2)cc1Cl (single isomer, unassigned) [Example 37-6] meets or exceeds 3%.
// result yes

====

The reader will find reported EC50 values listed item by item below.
# tgt: glutathione-S-transferase (GST) tagged LXRbeta LBD (ligand binding domain) (Homo sapiens)
# Construct: purchased Invitrogen pv4658
# protocol.details: LanthaScreen TR-FRET Liver X Receptor Coactivator Assay, LXR beta
# Format: biochemical
# test.context: LXR beta IP, potency (Inflection Point), compound-induced co-activator recruitment, TR-FRET
Response body: numeric value in nM, unit text excluded.

Below are worked cases with known answers.
| molecule | quantity.unit | numeric.readout |
| --- | --- | --- |
| CN(C)C(=O)c1ccc(OCC[C@@H]2CC23CCN(C(=O)C2(c4ccccc4Br)CCC2)CC3)cc1Cl (single isomer, unassigned) | nM | 9 |
| COc1cccc([C@@](O)(C(=O)N2CCC3(CC2)C[C@@H]3CCCOc2ccc(C(=O)N(C)C)c(Cl)c2)C(F)(F)F)c1 (single isomer, unassigned) | nM | 6 |
| Cc1cc(OC2CC(CC3CCN(C(=O)C(O)(c4cccc(OC5CC5)c4)C(F)(F)F)CC3)C2)ccc1C(=O)N(C)C (single isomer, unassigned) | nM | 63 |
| CN(C)C(=O)c1ccc(OCC[C@@H]2C[C@@H]2C2CCN(C(=O)c3c(F)cccc3F)CC2)cc1Cl (single isomer, unassigned) | nM | 106 |

Let us move to another entry and its EC50.
// query Return reported EC50; argument: CC(C[C@H]1CC12CCN(C(=O)C1(c3ccccc3)CCC1)CC2)Oc1ccc(C(=O)N(C)C)c(Cl)c1 (single isomer, unassigned)
// result 87

====

# tgt: glutathione-S-transferase (GST) tagged LXRalpha LBD (ligand binding domain) (Homo sapiens)
# Construct: purchased Invitrogen pv4655
# protocol.details: biochemical
# test.context: LXR alpha IP, potency (Inflection Point), compound-induced co-activator recruitment, TR-FRET
# note: boundary value 0.4 µM maps to Condition not met; EC50 below it maps to Condition met

| compound | classification |
| --- | --- |
| CN(C)C(=O)c1ccc(OCC(C)(C)CCC2CCN(C(=O)C(O)(c3ccccc3)C(F)(F)F)CC2)cc1Cl (single isomer, unassigned) | Condition not met |

// query Criterion: EC50 strictly below 0.4 µM. Is it met by CN(C)C(=O)c1ccc(OCCCCC2CCN(C(=O)C(O)(c3cccc(-c4cnn(C)c4)c3)C(F)(F)F)CC2)cc1Cl (single isomer, unassigned) ?
// result Condition not met

// query Criterion: EC50 strictly below 0.4 µM. Is it met by COc1cccc(C(O)(C(=O)N2CCC3(CCC(Oc4ccc(C(=O)N(C)C)c(Cl)n4)CC3)CC2)C(F)(F)F)c1 (single isomer, unassigned) [Example 1-3] ?
// result Condition not met

// query Criterion: EC50 strictly below 0.4 µM. Is it met by COc1cccc([C@@](O)(C(=O)N2CCC(CCCCOc3ccc(C(=O)N(C)C)c(C#N)n3)CC2)C(F)(F)F)c1 (single isomer, unassigned) ?
// result Condition not met

// query Criterion: EC50 strictly below 0.4 µM. Is it met by CN(C)C(=O)c1ccc(OCCCCC2CCN(C(=O)C(O)(c3cccc(F)c3)C(F)(F)F)CC2)cc1Cl (single isomer, unassigned) ?
// result Condition met

// query Criterion: EC50 strictly below 0.4 µM. Is it met by CCNC(=O)c1ccc(OCCCCC2CCN(C(=O)[C@](O)(c3ccccc3)C(F)(F)F)CC2)cc1Cl (single isomer, unassigned) ?
// result Condition not met

// query Criterion: EC50 strictly below 0.4 µM. Is it met by CN(C)C(=O)c1ccc(OCCCCC2CCN(C(=O)C(O)(c3ccccc3)C(F)(F)F)CC2)nc1C#N (stereo not shown) ?
// result Condition not met

// query Criterion: EC50 strictly below 0.4 µM. Is it met by O=C(c1ccc(OCCCCC2CCN(C(=O)[C@](O)(c3ccccc3)C(F)(F)F)CC2)cc1Cl)N1CC[C@@H](O)C1 (single isomer, unassigned) ?
// result Condition not met

// query Criterion: EC50 strictly below 0.4 µM. Is it met by O=C(c1ccc(OCCCCC2CCN(C(=O)[C@](O)(c3ccccc3)C(F)(F)F)CC2)cc1Cl)N1CCC[C@@H]1CO (single isomer, unassigned) ?
// result Condition not met

// query Criterion: EC50 strictly below 0.4 µM. Is it met by CN(C)C(=O)c1ccc(OCCC2CC3(CCN(C(=O)C(C)(C)c4ccccc4)CC3)C2)cc1Cl ?
// result Condition met

// query Criterion: EC50 strictly below 0.4 µM. Is it met by CN(C)C(=O)c1ccc(O[C@H]2C[C@@H](CC3CCN(C(=O)[C@](O)(c4cccc(C(F)(F)F)c4)C(F)(F)F)CC3)C2)cc1Cl (single isomer, unassigned) ?
// result Condition not met
